The measured values listed here are drawn from patent US20180244758A1.

Target: T1, EBOV GP on rVSV particles (Ebola virus (EBOV), UniProt Q05320 33-676)
T1 sequence: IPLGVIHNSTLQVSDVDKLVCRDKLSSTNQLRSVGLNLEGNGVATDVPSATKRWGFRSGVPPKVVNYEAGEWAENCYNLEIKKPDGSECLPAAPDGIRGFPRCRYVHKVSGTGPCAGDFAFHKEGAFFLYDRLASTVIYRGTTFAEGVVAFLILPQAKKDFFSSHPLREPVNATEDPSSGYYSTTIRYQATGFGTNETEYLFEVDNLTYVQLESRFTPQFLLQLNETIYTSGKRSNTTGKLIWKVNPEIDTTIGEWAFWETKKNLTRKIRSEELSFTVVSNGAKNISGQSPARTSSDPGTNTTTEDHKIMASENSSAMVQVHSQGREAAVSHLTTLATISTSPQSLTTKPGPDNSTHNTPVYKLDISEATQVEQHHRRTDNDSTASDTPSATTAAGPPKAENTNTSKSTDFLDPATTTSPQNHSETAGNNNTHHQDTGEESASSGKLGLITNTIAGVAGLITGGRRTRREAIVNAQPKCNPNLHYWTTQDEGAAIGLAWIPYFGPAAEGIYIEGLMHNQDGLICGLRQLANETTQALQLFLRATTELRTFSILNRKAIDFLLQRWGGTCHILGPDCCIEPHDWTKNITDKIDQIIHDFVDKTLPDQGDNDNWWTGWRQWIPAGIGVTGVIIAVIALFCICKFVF
Experiment: cell-based or functional assay
Neutralization (VSV-GP IC50, nM) by entry:
Give the quantity in nM, number only.

Check out these entries, answers already filled in.
1. mAb PE-16 (antibody, V domains shown) VH: QVQLVQSGAEVTKPGASVKVSCKASGYTFTTYYMHWVRQAPGQGLEWVGIINPSGGITRYAQKFQGRVTLTRDTSTTTVYMELSSLRSEDTAVYYCARDRYPVLFATDYGMDVWGQGTTVTVSS VL: DIVMTQSPATLSLSPGERATLSCRASQSVSGYLAWYQQKPGQAPRLLIYDASNRATGIPARFSGSGSGTDFTLTISSLEPEDFAVYYCQQRSIWPPGVTFGGGTKVEIK :: 0.2
2. mAb PE-47 (antibody, V domains shown) VH: EVQLVESGGGLVKPGGSLRLSCAASGFTFSNAWMSWVRQAPGEGLEWVGRIKSKTDGGTIDYAAPVKGRFTISRDDSKNTVYLQMTSLKTEDTAVYYCTTYTEDMQYFDWLLRGGETFDYWGQGTLVTVSS VL: DIQMTQSPSSLSASVGDRVTITCRASQYISTYLNWYQQKPGKAPKLLIYAAYNLQSGVPSRFSGSGSGTDFTLTISSLQPEDFATYYCQQSYSTPGRYTFGQGTKVEIK :: 6.6
3. mAb PE-24 (antibody, V domains shown) VH: EVQLVESGGGLVQPGGSLRLSCAASGFTFSSYAMSWVRQAPGKGLEWVSEISGLGGSTYYADSAKGRFTISRDNSKSTLYLQMNSLRAEDTAVYYCAKDHRVWAPGYYFDHWGQGTLVTVSS VL: DIVLTQSPSTLSASVGDRVTITCRASQSISSWLAWYQQKPGKAPKLLIYDASSLESGVPSRFSGSGSGTEFTLTISSLQPDDFATYFCQQYNRSPTFGGGTKVEIK :: 1.8

Now consider the entry below.
Request: Fill in the blank: the reported Neutralization (VSV-GP IC50, nM) of mAb PE-87 (antibody, V domains shown) VH: QVQLVQSGVTLVQPGGSLRVSCAASGFTFSSYAMSWVRQAPGKGLEWVSAISGLGGSTYYADSVKGRFTISRDNSKNTLYLQMNSLRAEDTAVYYCAKDHRVWAAGYHFDYWGQGALVTVSS VL: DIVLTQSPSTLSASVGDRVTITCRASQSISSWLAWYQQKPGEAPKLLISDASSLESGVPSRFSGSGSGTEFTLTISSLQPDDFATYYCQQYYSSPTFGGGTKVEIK is ____.
Response: 0.5
